Ref: paper PMC9864808

Target: hAChE (recombinant human isoform) (Homo sapiens, UniProt P22303)
Sequence (P22303 32-614): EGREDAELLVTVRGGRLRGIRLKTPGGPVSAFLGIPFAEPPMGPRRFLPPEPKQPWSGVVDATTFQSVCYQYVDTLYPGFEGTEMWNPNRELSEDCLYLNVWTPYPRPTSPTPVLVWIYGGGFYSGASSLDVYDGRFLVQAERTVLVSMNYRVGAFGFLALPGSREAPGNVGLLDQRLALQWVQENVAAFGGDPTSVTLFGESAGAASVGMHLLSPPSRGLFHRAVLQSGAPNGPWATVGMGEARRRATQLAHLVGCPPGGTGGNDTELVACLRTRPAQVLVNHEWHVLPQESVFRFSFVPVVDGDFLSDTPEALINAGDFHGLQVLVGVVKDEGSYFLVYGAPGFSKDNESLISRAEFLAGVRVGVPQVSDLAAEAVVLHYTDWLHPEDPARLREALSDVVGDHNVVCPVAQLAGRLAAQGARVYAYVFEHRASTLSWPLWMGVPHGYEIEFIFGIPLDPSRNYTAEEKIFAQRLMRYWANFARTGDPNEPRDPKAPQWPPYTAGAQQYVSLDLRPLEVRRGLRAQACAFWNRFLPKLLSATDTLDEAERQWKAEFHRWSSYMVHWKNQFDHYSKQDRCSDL
Assay: biochemical
Settings: recombinant human isoform, means ± SD of three measurements
Procedure: The in vitro inhibitory activities of novel purine nucleosides 5-10, 12, 13 and 15, and 16 were evaluated against both heterologous (electric eel eeAChE, horse eqBChE) and human (recombinant) cholinesterases isoforms, by applying the Ellmann colorimetric assay, with slight modifications. The test compounds were assayed for their inhibitory activity toward eeAChE (electric eel AChE) and eqBChE (horse serum BChE), respectively, following Ellman’s method with modifications. […]
EXPERIMENTAL_READOUT: IC50

>>> result("C[C@@H]1O[C@@H](n2cnc3c(N(Cc4ccccc4)C(=O)c4ccccc4)ncnc32)[C@H](OCc2ccccc2)[C@H](OCc2ccccc2)[C@H]1OCc1ccccc1 [Compound 13]")
"> 20 µM"
>>> result("C[C@H]1O[C@H](n2cnc3c(NC(=O)c4ccccc4)ncnc32)[C@@H](OCc2ccccc2)[C@@H](OCc2ccccc2)[C@@H]1OCc1ccccc1 [Compound 9]")
"> 20 µM"
>>> result("C[C@@H]1O[C@@H](n2cnc3c(NC(=O)c4ccccc4)ncnc32)[C@H](OCc2ccccc2)[C@H](OCc2ccccc2)[C@H]1OCc1ccccc1 [Compound 15]")
"> 5 µM"
>>> result("O=C(Nc1ncnc2c1ncn2[C@@H]1O[C@H](COCc2ccccc2)[C@@H](OCc2ccccc2)[C@H](OCc2ccccc2)[C@@H]1OCc1ccccc1)c1ccccc1 [Compound 6]")
"17 µM"
>>> result("C[C@@H]1O[C@H](n2cnc3c(NC(=O)c4ccccc4)ncnc32)[C@H](OCc2ccccc2)[C@H](OCc2ccccc2)[C@H]1OCc1ccccc1 [Compound 16]")
"> 5 µM"
>>> result("C[C@H]1O[C@@H](n2cnc3c(NC(=O)c4ccccc4)ncnc32)[C@@H](OCc2ccccc2)[C@@H](OCc2ccccc2)[C@@H]1OCc1ccccc1 [Compound 10]")
"17.8 µM"

----------
Target: hBChE (recombinant human isoform) (Homo sapiens)
Sequence (P06276 29-602): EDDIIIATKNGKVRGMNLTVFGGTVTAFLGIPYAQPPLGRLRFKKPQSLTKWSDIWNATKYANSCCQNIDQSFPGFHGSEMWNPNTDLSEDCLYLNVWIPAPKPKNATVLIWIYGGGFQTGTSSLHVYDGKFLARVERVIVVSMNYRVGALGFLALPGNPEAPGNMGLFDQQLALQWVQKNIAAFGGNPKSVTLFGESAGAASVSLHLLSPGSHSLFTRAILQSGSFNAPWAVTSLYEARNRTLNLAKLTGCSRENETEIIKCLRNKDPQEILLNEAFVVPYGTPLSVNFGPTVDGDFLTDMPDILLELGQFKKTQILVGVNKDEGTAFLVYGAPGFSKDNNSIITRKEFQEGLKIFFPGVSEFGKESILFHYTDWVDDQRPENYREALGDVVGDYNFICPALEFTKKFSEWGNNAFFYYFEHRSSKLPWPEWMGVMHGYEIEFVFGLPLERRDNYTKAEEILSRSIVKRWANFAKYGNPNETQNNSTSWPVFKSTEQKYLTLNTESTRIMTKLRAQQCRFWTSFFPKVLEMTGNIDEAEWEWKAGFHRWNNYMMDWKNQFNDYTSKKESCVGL
Experiment: biochemical
Conditions: recombinant human isoform, means ± SD of three measurements
Method: The in vitro inhibitory activities of novel purine nucleosides 5-10, 12, 13 and 15, and 16 were evaluated against both heterologous (electric eel eeAChE, horse eqBChE) and human (recombinant) cholinesterases isoforms, by applying the Ellmann colorimetric assay, with slight modifications. The test compounds were assayed for their inhibitory activity toward eeAChE (electric eel AChE) and eqBChE (horse serum BChE), respectively, following Ellman’s method with modifications. […]
Listing of recorded IC50 by entry.
EXPERIMENTAL_READOUT: IC50 (µM)

>>> readout_number("C[C@H]1O[C@@H](n2cnc3c(NC(=O)c4ccccc4)ncnc32)[C@@H](OCc2ccccc2)[C@@H](OCc2ccccc2)[C@@H]1OCc1ccccc1")
8.7
>>> readout_number("C[C@H]1O[C@H](n2cnc3c(NC(=O)c4ccccc4)ncnc32)[C@@H](OCc2ccccc2)[C@@H](OCc2ccccc2)[C@@H]1OCc1ccccc1")
15.4

----------
Listing of recorded IC50 by entry.
target: eeAChE (electric eel acetylcholinesterase) (Electrophorus electricus, UniProt O42275)
Sequence (O42275 24-633): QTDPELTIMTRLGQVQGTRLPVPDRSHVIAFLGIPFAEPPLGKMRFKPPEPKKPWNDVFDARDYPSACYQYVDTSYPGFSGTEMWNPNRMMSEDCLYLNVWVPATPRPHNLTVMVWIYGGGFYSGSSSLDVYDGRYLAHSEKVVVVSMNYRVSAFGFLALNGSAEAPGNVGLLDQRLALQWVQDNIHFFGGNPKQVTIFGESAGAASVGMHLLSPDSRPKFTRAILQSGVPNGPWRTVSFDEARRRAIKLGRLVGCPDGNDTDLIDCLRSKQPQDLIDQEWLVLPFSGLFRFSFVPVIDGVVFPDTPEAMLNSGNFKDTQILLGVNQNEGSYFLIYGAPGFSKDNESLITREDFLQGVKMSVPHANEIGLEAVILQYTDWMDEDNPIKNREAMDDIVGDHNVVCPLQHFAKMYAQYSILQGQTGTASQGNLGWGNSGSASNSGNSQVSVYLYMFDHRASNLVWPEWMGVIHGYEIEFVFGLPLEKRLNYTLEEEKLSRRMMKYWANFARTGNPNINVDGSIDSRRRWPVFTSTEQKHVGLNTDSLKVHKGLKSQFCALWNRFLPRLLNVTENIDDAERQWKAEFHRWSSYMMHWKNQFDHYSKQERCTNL
EXPERIMENTAL_READOUT: IC50

>>> result("C[C@H]1O[C@@H](n2cnc3c(NC(=O)c4ccccc4)ncnc32)[C@@H](OCc2ccccc2)[C@@H](OCc2ccccc2)[C@@H]1OCc1ccccc1")
"15 µM"
>>> result("O=C(Nc1ncnc2c1ncn2[C@H]1O[C@H](COCc2ccccc2)[C@@H](OCc2ccccc2)[C@H](OCc2ccccc2)[C@@H]1OCc1ccccc1)c1ccccc1")
"> 20 µM"
>>> result("C[C@@H]1O[C@H](n2cnc3c(NC(=O)c4ccccc4)ncnc32)[C@H](OCc2ccccc2)[C@H](OCc2ccccc2)[C@H]1OCc1ccccc1")
"> 5 µM"
>>> result("CC(=O)O[C@@H]1[C@@H](OC(C)=O)[C@H](C)O[C@@H](n2cnc3c(NC(=O)c4ccccc4)ncnc32)[C@@H]1OC(C)=O")
"> 20 µM"
